Numbers sourced from patent US20240247080A1.

- ASSAY_TARGET: T1, human GIP receptor (human, UniProt P48546 22-466)
- T1 sequence (looked up): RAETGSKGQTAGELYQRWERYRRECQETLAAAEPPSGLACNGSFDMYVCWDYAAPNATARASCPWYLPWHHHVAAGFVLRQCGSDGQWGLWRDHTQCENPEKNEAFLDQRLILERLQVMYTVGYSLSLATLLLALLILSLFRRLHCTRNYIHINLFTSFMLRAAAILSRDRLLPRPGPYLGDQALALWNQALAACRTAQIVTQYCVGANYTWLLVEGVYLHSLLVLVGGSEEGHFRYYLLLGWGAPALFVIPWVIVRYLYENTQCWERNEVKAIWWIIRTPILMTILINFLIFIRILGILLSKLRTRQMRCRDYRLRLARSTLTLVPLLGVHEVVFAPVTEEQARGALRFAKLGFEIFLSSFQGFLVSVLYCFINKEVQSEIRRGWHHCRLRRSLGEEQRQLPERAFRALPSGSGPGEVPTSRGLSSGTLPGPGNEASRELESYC
- TEST_DESCRIPTION: cell-based or functional assay
Starred links: 1 amine or outer side, 2 acyl side, 3 side chain; linkers in the order of their positions; H or OH if unused. Non-standard residues stand in square brackets, D forms with d. Groups on a side chain read outwards from the residue. No end group written: not given here. *: point of attachment. C20 diacid = O=C(O)CCCCCCCCCCCCCCCCCCC(=O)*; C18 diacid = O=C(O)CCCCCCCCCCCCCCCCC(=O)*; γGlu = O=C(O)[C@H](CCC(=O)[*:2])N[*:1]; εLys = N[C@@H](CCCCN[*:1])C(=O)[*:2]; AEEA = NCCOCCOCC(=O)O; Aib = CC(C)(N)C(=O)O
Note to self: use criterion met only for EC50, CreLuc assay, 0.5% hP readings below 0.4 nM; a reading exactly at 0.4 nM still gets criterion not met.

These recorded examples may help you get a feel for the data.
1. YXEGTFTSDYSIXLEKQAQXAFVEWLIKGGPSSGASXRHYYNWLTRQRY (Aib at 2, 13, 20, 37; DTyr 49; K28 side chain: C20DA-gGlu-gGlu-gGlu-gGlu-gGlu-gGlu-eLys; C-terminal NH2) [Compound 74] | criterion met
2. Y[Aib]EGTFTSDYSI[Aib]LEKQAQ[Aib]EFVQWLIKGGPSSGASLRHYYNWLTRQRY-NH2 (not fully specified (residue 28); also: TFA salt) [Compound 28] | criterion met
3. Y[Aib]EGTFTSDYSI[Aib]LEKQAQ[Aib]AFVEWLIK([εLys-Glu-γGlu-γGlu-γGlu-γGlu-C20 diacid])GGPSYYVSLRHYYNWLTRQRY-NH2 (also: TFA salt) [Compound 75] | criterion not met
4. Y[Aib]EGTFTSDYSI[Aib]LEEQAQ[Aib]AFVQWLIK([εLys-γGlu-γGlu-γGlu-γGlu-γGlu-C20 diacid])GGPSSGASLRHYYNWLTRQRY-NH2 (also: TFA salt) [Compound 34] | criterion met
5. Y[Aib]EGTFTSDYSI[Aib]LEKQAQ[Aib]AFVQWLIK([AEEA-AEEA-γGlu-γGlu-γGlu-γGlu-C18 diacid])GGPEEPASLRHYYNWLTRQRY-NH2 (also: TFA salt) [Compound 57] | criterion met

input: Does the reported EC50, CreLuc assay, 0.5% hP of YXEGTFTSDYSIXLEKQAQXAFVEWLIKGGPSSGASLRHYXNRXTRQRY (Aib at 2, 13, 20, 41, 44; K28 side chain: C20DA-gGlu-gGlu-gGlu-gGlu-gGlu-gGlu-eLys; C-terminal NH2) [Compound 18] stay below 0.4 nM?
output: criterion met

input: Repeat for the following binder: YXEGTFTSDYSIXLEKQAQXAFVQWLIKGGPESPASLRHYYNWLTRQRY (Aib at 2, 13, 20; K28 side chain: C18DA-gGlu-gGlu-gGlu-gGlu-gGlu; C-terminal NH2) [Compound 12]
output: criterion met

input: Repeat for the following binder: YXEGTFTSDYSIXLEKQAQXAFVEWLIKGGPSEPQSIRHYYNWLTRQRY (Aib at 2, 13, 20; K28 side chain: C20DA-gGlu-gGlu-gGlu-gGlu-gGlu-gGlu-eLys; C-terminal NH2) [Compound 48]
output: criterion met

input: Repeat for the following binder: YXEGTFTSDYSIXLEKQAQXAFVEWLIKGGPSSGASXRHYYNWLTXQRY (Aib at 2, 13, 20, 37; hArg 46; DTyr 49; K28 side chain: C20DA-gGlu-gGlu-gGlu-gGlu-gGlu-gGlu-eLys; C-terminal NH2) [Compound 26]
output: criterion met

input: Repeat for the following binder: YXEGTFTSDYSIXLEKQAQXAFVEWLIKGGPSSGASLRHYYNWLTRQRY (Aib at 2, 13, 20; NMeQ 47; K28 side chain: C20DA-gGlu-gGlu-gGlu-gGlu-gGlu-gGlu-eLys; C-terminal NH2) [Compound 85]
output: criterion met

input: Repeat for the following binder: Y[Aib]EGTFTSDYSI[Aib]LEKQAQ[Aib]AFVQWLIKGGPESGASLRHYYNWLTRQRY-NH2 (not fully specified (residue 28); also: TFA salt) [Compound 55]
output: criterion met

input: Repeat for the following binder: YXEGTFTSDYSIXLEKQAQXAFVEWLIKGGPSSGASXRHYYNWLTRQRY (Aib at 2, 13, 20, 37; NMeR 48; K28 side chain: C20DA-gGlu-gGlu-gGlu-gGlu-gGlu-gGlu-eLys; C-terminal NH2) [Compound 39]
output: criterion met

input: Repeat for the following binder: Y[Aib]EGTFTSDYSI[Aib]LEEEAQ[Aib]AFVQWLIK([εLys-εLys-γGlu-γGlu-γGlu-γGlu-γGlu-C20 diacid])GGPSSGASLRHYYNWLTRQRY-NH2 (also: TFA salt) [Compound 7]
output: criterion met

input: Repeat for the following binder: YXEGTFTSDYSIXLAAAAQXAFVEWLIKGGPSSGASLRHYYNWLTRQRY (Aib at 2, 13, 20; K28 side chain: C20DA-gGlu-gGlu-gGlu-gGlu-gGlu-gGlu-eLys; C-terminal NH2) [Compound 20]
output: criterion not met
